system.under.test: Glucagon-like peptide 1 receptor (Homo sapiens) (UniProt P43220)
Sequence (P43220 whole entry, looked up): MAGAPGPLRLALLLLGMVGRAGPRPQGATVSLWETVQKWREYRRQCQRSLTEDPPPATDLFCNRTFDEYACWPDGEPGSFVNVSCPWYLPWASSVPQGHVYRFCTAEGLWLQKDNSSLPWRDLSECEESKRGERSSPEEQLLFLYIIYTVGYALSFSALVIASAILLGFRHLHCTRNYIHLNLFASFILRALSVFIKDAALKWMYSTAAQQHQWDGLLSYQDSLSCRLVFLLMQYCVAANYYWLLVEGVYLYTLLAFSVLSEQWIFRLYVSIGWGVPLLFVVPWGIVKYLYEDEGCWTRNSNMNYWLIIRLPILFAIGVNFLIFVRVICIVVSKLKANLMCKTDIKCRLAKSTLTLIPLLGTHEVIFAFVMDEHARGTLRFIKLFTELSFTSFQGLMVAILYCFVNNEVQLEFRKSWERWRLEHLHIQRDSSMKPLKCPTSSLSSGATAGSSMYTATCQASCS
test.details: qHTS of GLP-1 Receptor Agonists: LOPAC Validation (AID 624148);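 also: luminescence from a luciferase reporter switched on by cAMP; higher luminescence signal means agonism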
experimental.conditions: GLP-1R agonist cell assay; series mostly up to 46.1 µM
Source text: The overall goal of this project was to develop a novel assay for discovering small molecule ligands for class B1 G protein-coupled receptors (GPCRs). Very few agonists (or inverse agonists) with generally weak activity for this entire group of physiologically important receptors are known to date. […] The assay was developed in a "mix and measure" format using a cell-based functional readout. […]
Records with an inconclusive call do not appear. Active and inactive are the calls of the source. Calls follow the shape of the dose curve; as a rule, active = well fitted curve in the direction sought with a large enough effect; inconclusive = small, poorly fitted or top-dose-only effect, or another doubt; inactive = no such curve, though single readings can be large or run the other way.
experimental.endpoint: outcome

INSERT INTO results (molecule, measurement) VALUES
  ('Nc1ccn([C@@H]2O[C@H](CO)[C@@H](O)C2O)c(=O)n1 (some centres not stated)', 'inactive'),
  ('O=c1c(O)c(-c2ccc(O)cc2O)oc2cc(O)cc(O)c12', 'inactive'),
  ('Cc1cccc(C#Cc2ccccc2)n1', 'inactive'),
  ('COc1cc2c(cc1OC)C1CC(=O)C(CC(C)C)CN1CC2 (configuration not stated)', 'inactive'),
  ('O=c1c(O)c(-c2cc(O)c(O)c(O)c2)oc2cc(O)cc(O)c12', 'inactive'),
  ('NNc1nncc2ccccc12', 'inactive'),
  ('CC(=O)O[C@H]1C(=O)[C@@]2(C)C([C@H](OC(=O)c3ccccc3)[C@]3(O)C[C@H](OC(=O)[C@H](O)[C@@H](NC(=O)c4ccccc4)c4ccccc4)C(C)=C1C3(C)C)[C@]1(OC(C)=O)CO[C@@H]1C[C@@H]2O (some centres not stated)', 'inactive'),
  ('CC1(C)C(=O)N(CCN2CCC(C(=O)c3ccc(F)cc3)CC2)c2ccccc21', 'inactive'),
  ('CC1(C)NC(=O)N(c2ccc([N+](=O)[O-])c(C(F)(F)F)c2)C1=O', 'inactive'),
  ('NCCCCNCCCN', 'inactive'),
  ('Oc1ccc2ccccc2c1SSc1c(O)ccc2ccccc12', 'inactive'),
  ('CC(C)c1ccc2c(c1)c(SC(C)(C)C)c(CC(C)(C)C(=O)O)n2Cc1ccc(Cl)cc1', 'inactive'),
  ('Nc1nc(N)c(N=O)c(OCC2CCCCC2)n1', 'inactive'),
  ('O=C(O)c1cccnc1Nc1cccc(C(F)(F)F)c1', 'inactive'),
  ('Oc1ccc(-c2nc(-c3ccc(F)cc3)c(-c3ccncc3)[nH]2)cc1', 'inactive'),
  ('O=C(c1ccccc1)c1ccc2n1CCC2C(=O)O (configuration not stated)', 'inactive'),
  ('OC(CN1CCN(c2cccc(Cl)c2)CC1)C(c1ccccc1)c1ccccc1 (configuration not stated)', 'inactive');

====

test.details: qHTS of pediatric cancer cell lines to identify multiple opportunities for drug repurposing: Confirmatory screen for A673 cells (AID 1347110);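 also: cells exposed to compound for 48 h before the viability read; nearly all actives have a fitted effect of over 65% in size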
experimental.conditions: A673 Ewing sarcoma cell viability; series mostly up to 45.9 µM
Results filed as inconclusive are left out. Calls of active or inactive are those of the source. The call rests on the fitted dose curve; in most records, active means well fitted cell-killing curve with a large enough effect; inconclusive means small, poorly fitted or top-dose-only effect; inactive means flat fitted curve, though single readings scatter.
Outcome codes: y = active, n = inactive

INSERT INTO measurements (molecule, answer_label) VALUES
  ('CCN(CCO)CCCC(C)Nc1ccnc2cc(Cl)ccc12 (stereo unspecified)', 'n'),
  ('CCN(CC)C(=S)SSC(=S)N(CC)CC', 'y'),
  ('CCCOc1ccc2nc(NC(=O)OC)[nH]c2c1', 'y'),
  ('Cc1c(C(=O)NN2CCCCC2)nn(-c2ccc(Cl)cc2Cl)c1-c1ccc(Cl)cc1', 'y'),
  ('O=C(NCC1CCCCN1)c1cc(OCC(F)(F)F)ccc1OCC(F)(F)F (stereo unspecified)', 'y'),
  ('Clc1ccc(C(Cn2ccnc2)OCc2ccc(Sc3ccccc3)cc2)c(Cl)c1 (stereo unspecified)', 'y'),
  ('CCN(CC)CCOc1ccc(Nc2ncc3cc(-c4c(Cl)cccc4Cl)c(=O)n(C)c3n2)cc1', 'y'),
  ('Oc1ccc(-c2nc(-c3ccc(F)cc3)c(-c3ccncc3)[nH]2)cc1', 'y'),
  ('O=C(CCc1ccc(O)cc1)c1c(O)cc(O)cc1O', 'n'),
  ('Cc1nc(Nc2ncc(C(=O)Nc3c(C)cccc3Cl)s2)cc(N2CCN(CCO)CC2)n1', 'y'),
  ('COc1cc(C(C)=O)ccc1OCCCN1CCC(c2noc3cc(F)ccc23)CC1', 'n');

All values here come from PubChem BioAssay (NCATS).
